Source of measurements: patent US20250277208A1

molecular target: IL-6 signaling (Homo sapiens); test: IL-6 Bioassay (Promega), luciferase reporter cells, inhibition of IL-6-induced cell signaling; format: cell-based; conditions: peptides incubated with IL-6 for 10 min, IL-6 0.5 nM, cells 6 hours
Sequence (P05231 30-212): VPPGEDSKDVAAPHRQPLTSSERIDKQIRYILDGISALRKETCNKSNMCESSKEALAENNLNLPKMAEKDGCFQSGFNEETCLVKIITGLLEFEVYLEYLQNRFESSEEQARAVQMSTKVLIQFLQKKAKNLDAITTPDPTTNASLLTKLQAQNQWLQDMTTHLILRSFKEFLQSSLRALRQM
Property Name: IC50 (µM)
Reply with just the number (in µM).

Provide value of IC50 for this record tested with IL-6 signaling (Homo sapiens): Ac-SVRDLLRRMCHIVG-NH2 [9(2), SVRDLLRRMCHIVG]
0.085

What do you have for Ac-SFRDLIRMMKVCVG-NH2 [Peptide 90, SFRDLIRMMKVCVG] ?
1.2

What do you have for Ac-TIRDLIRMMKVCVG-NH2 [Peptide 100, TIRDLIRMMKVCVG] ?
16.8

What do you have for Ac-SVRDLLRRMKVCVG-NH2 [27(2), SVRDLLRRMKVCVG] ?
0.58

* * *

target: IL-6 (Homo sapiens); construct: purchased R&D Systems BT7270B; experiment: Biacore surface plasmon resonance binding of peptides to immobilised IL-6; conditions: KD (nM) P < 0.05, Table 1; N and C termini not protected; cells printed in μM
Sequence (P05231 30-212): as above
Ends that are not written are not given here.
Property Name: Kd

Which Kd value is on record for GNSRDLLRRMCHIVG [Peptide 42, GNSRDLLRRMCHIVG] ?
> 10000 nM
